Reference source: the supplement of paper PMC11061612

- Test system: BPH-1 (Non-Cancerous);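 note: after 72 h of two-drug dosing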
- Assay Comment: Bliss excess, mean over the matrix (fraction); higher = more synergy
Measurement Name: Bliss excess

>>> test_result("Cc1cc2ncnn2cc1Nc1ncc2c(n1)n(C1CCOCC1)c(=O)n2C [AZD7648] + C[C@@H]1COCCN1C2=NC(=NC(=C2)C3(CC3)[S@](=N)(=O)C)C4=C5C=CNC5=NC=C4 [AZD6738] (first compound max 10 µM, 7x7, partner max 10 µM)")
-0.0251
>>> test_result("C=CCn1c(=O)c2cnc(Nc3ccc(N4CCN(C)CC4)cc3)nc2n1-c1cccc(C(C)(C)O)n1 [AZD1775] + C1CN(CCC1(C(=O)N[C@@H](CCO)C2=CC=C(C=C2)Cl)N)C3=NC=NC4=C3C=CN4 [Capivasertib] (first compound max 3 µM, partner max 3 µM)")
-0.0371
>>> test_result("C=CCn1c(=O)c2cnc(Nc3ccc(N4CCN(C)CC4)cc3)nc2n1-c1cccc(C(C)(C)O)n1 [AZD1775] + O=C(c1cc(Cc2n[nH]c(=O)c3ccccc23)ccc1F)N1CCN(C(=O)C2CC2)CC1 [Olaparib] (first compound max 1 µM, partner max 10 µM)")
-0.0199

// next item, Bliss excess requested
Exercise: Jot down Bliss excess (BPH-1 (Non-Cancerous)) of C[C@@H]1COCCN1c1cc(C2([S@](C)(=N)=O)CC2)nc(-c2ccnc3[nH]ccc23)n1 [AZD6738] + O=C(c1cc(Cc2n[nH]c(=O)c3ccccc23)ccc1F)N1CCN(C(=O)C2CC2)CC1 [Olaparib] (first compound max 10 µM, 7x7, partner max 10 µM) .
Key: 0.0283

* * *

- Test system: KS-1 (Glioblastoma)
- Assay Comment: combination Emax (second highest fraction inhibited in the dose matrix, 72 h); higher = more inhibition; extreme values may be limits of the assay
Threshold rule: combination Emax greater than or equal to 0.3 is Condition met; below that, Condition not met.

>>> label_value("CS(=O)(=O)CCNCc1ccc(-c2ccc3ncnc(Nc4ccc(OCc5cccc(F)c5)c(Cl)c4)c3c2)o1 [Lapatinib] + Cn1cnc2c(F)c(Nc3ccc(Br)cc3Cl)c(C(=O)NOCCO)cc21 [Selumetinib] (first compound max 10 µM, 7x7, partner max 10 µM)")
"Condition met"
>>> label_value("Cn1cnc2c(F)c(Nc3ccc(Br)cc3Cl)c(C(=O)NOCCO)cc21 [Selumetinib] + CC(C)n1c(=O)n(C)c2cnc3cc(F)c(-c4ccc(OCCCN5CCCCC5)nc4)cc3c21 [AZD1390] (first compound max 10 µM, 7x7, partner max 0.3 µM)")
"Condition not met"
>>> label_value("CC1(C)CCC(CN2CCN(c3ccc(C(=O)NS(=O)(=O)c4ccc(NCC5CCOCC5)c([N+](=O)[O-])c4)c(Oc4cnc5[nH]ccc5c4)c3)CC2)=C(c2ccc(Cl)cc2)C1 [Venetoclax] + CN(C)CCCOc1ccc(-c2ccc3ncc4c(c3c2)n(C2CCOCC2)c(=O)n4C)cn1 [AZD0156] (first compound max 1 µM, 7x7, partner max 1 µM)")
"Condition not met"
>>> label_value("C=CCn1c(=O)c2cnc(Nc3ccc(N4CCN(C)CC4)cc3)nc2n1-c1cccc(C(C)(C)O)n1 [AZD1775] + CCc1c2c(nc3ccc(O)cc13)-c1cc3c(c(=O)n1C2)COC(=O)[C@]3(O)CC [SN-38] (first compound max 1 µM, partner max 0.3 µM)")
"Condition met"

# evaluate next
Exercise: State whether the measured combination Emax reaches 0.3, counting equality as reaching it, for Cc1nc(Nc2ncc(C(=O)Nc3c(C)cccc3Cl)s2)cc(N2CCN(CCO)CC2)n1 [Dasatinib] + CC(=O)Nc1cccc(-n2c(=O)n(C3CC3)c(=O)c3c(Nc4ccc(I)cc4F)n(C)c(=O)c(C)c32)c1 [Trametinib] (first compound max 2 µM, 7x7, partner max 1 µM)
Key: Condition met
